Each recorded value in this set is attributed to paper PMC8309014.

- experiment description: in vivo
- conditions: male, Wistar, rat, po
measured endpoint: half-life (min)

In [3]: df
Out[3]:
   structure_smiles  uom  value_measured
0  O=C/C=C/c1ccccc1  min            81.5
